System: NCI-H292 lung cancer cells
Test: FDA drug screening, complete media vs cholesterol-free media with simvastatin (TABLE 2)
Type: cell-based, human
Settings: NCI-H292 cells, FDA drug library screen, cholesterol-free media with simvastatin 0.04 μM
Structures can show the parent of a compound that is named as a salt.
For each record, write down the corresponding Cholesterol-free media + simvastatin (0.04 μM).

### Prompt Please state recorded Cholesterol-free media + simvastatin (0.04 μM) (tested on NCI-H292 lung cancer cells) of COc1ccccc1OCC(O)CO (stereo not drawn) [Guaifenesin]
### Response 1.078

### Prompt Please state recorded Cholesterol-free media + simvastatin (0.04 μM) (tested on NCI-H292 lung cancer cells) of CCCCOc1ccc(OCCCN2CCOCC2)cc1 [Pramocaine (hydrochloride)]
### Response 0.6469

### Prompt Please state recorded Cholesterol-free media + simvastatin (0.04 μM) (tested on NCI-H292 lung cancer cells) of COc1cc(Nc2ncc(F)c(Nc3ccc4c(n3)N(COP(=O)(O)O)C(=O)C(C)(C)O4)n2)cc(OC)c1OC [Fostamatinib (disodium hexahydrate)]
### Response 0.9752

### Prompt Please state recorded Cholesterol-free media + simvastatin (0.04 μM) (tested on NCI-H292 lung cancer cells) of C=Cc1c(C)c2cc3nc(c(CC(=O)N[C@@H](CC(=O)O)C(=O)O)c4[nH]c(cc5nc(cc1[nH]2)C(C)=C5CC)c(C)c4C(=O)O)[C@@H](CCC(=O)O)[C@@H]3C [Talaporfin (sodium)]
### Response 1.087

### Prompt Please state recorded Cholesterol-free media + simvastatin (0.04 μM) (tested on NCI-H292 lung cancer cells) of CC[C@H](C)[C@@H]1NC(=O)[C@H](Cc2ccc(O)cc2)NC(=O)[C@@H](N)CSSC[C@@H](C(=O)N2CCC[C@H]2C(=O)N[C@@H](CC(C)C)C(=O)NCC(N)=O)NC(=O)[C@H](CC(N)=O)NC(=O)[C@H](CCC(N)=O)NC1=O [Oxytocin]
### Response 1.057

### Prompt Please state recorded Cholesterol-free media + simvastatin (0.04 μM) (tested on NCI-H292 lung cancer cells) of CN[C@H]1CC[C@@H](c2ccc(Cl)c(Cl)c2)c2ccccc21 [Sertraline (hydrochloride)]
### Response 0.9083

### Prompt Please state recorded Cholesterol-free media + simvastatin (0.04 μM) (tested on NCI-H292 lung cancer cells) of Cc1ccc(Cl)c(Nc2ccccc2C(=O)O)c1Cl [Meclofenamate (sodium)]
### Response 1.009

### Prompt Please state recorded Cholesterol-free media + simvastatin (0.04 μM) (tested on NCI-H292 lung cancer cells) of C[C@H](Cc1cc2c(c(C(N)=O)c1)N(CCCO)CC2)NCCOc1ccccc1OCC(F)(F)F [Silodosin]
### Response 1.21

### Prompt Please state recorded Cholesterol-free media + simvastatin (0.04 μM) (tested on NCI-H292 lung cancer cells) of O=C(Nc1cccc2c(=O)cc(-c3nnn[nH]3)oc12)c1ccc(OCCCCc2ccccc2)cc1 [Pranlukast]
### Response 0.7995
